test system: Escherichia coli TOP10; assay: shrunken log2 fold change of peptide-encoding DNA abundance (4.5 h post-induction vs induction); higher = less antimicrobial activity (less host growth inhibition); conditions: time post-induction: 4.5 h; library: site-saturation at positions 5, 18, 19, 20;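 note: peptides expressed intracellularly from a pBAD plasmid library in pooled LB shake-flask culture, induced with 0.3% L-arabinose, DNA abundance read by NGS, three biological replicates, DESeq2 with apeglm shrinkage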
Label criterion met when shrunken log2 fold change is at or above 0.05; anything below gets criterion not met.

RRIRERPPRLPRPRPRPNITPRP    criterion not met
RRIRMRPPRLPRPRPRPENIPRP    criterion not met
RRIRVRPPRLPRPRPRPFLDPRP    criterion not met
RRIRRRPPRLPRPRPRPSWVPRP    criterion not met
RRIRNRPPRLPRPRPRPNLFPRP    criterion not met
RRIRDRPPRLPRPRPRPRSDPRP    criterion met
RRIRWRPPRLPRPRPRPQYVPRP    criterion not met
RRIRIRPPRLPRPRPRPDALPRP    criterion not met

Decide: shrunken log2 fold change of `RRIRVRPPRLPRPRPRPKNLPRP` >= 0.05?
criterion not met

Decide: shrunken log2 fold change of `RRIRNRPPRLPRPRPRPTLFPRP` >= 0.05?
criterion met

Decide: shrunken log2 fold change of `RRIRLRPPRLPRPRPRPKVAPRP` >= 0.05?
criterion not met

Decide: shrunken log2 fold change of `RRIRARPPRLPRPRPRPTSPPRP` >= 0.05?
criterion met

Decide: shrunken log2 fold change of `RRIRLRPPRLPRPRPRPNMRPRP` >= 0.05?
criterion not met

Decide: shrunken log2 fold change of `RRIRWRPPRLPRPRPRPTSIPRP` >= 0.05?
criterion not met

Decide: shrunken log2 fold change of `RRIRDRPPRLPRPRPRPWTRPRP` >= 0.05?
criterion not met

Decide: shrunken log2 fold change of `RRIRTRPPRLPRPRPRPKQLPRP` >= 0.05?
criterion met
